targetOrSystem: UniProt P42574
Sequence (P42574 29-175 limits assumed, species assumed): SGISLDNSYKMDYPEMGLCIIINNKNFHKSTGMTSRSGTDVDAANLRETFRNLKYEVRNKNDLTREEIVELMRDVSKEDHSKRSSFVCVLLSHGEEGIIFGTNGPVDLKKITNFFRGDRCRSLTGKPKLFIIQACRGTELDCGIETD
Sequence (P42574 176-277 limits assumed, species assumed): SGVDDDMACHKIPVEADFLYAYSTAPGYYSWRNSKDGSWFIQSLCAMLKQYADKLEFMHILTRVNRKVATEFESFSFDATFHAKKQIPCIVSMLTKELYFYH
methodNotes: Dissociation constant Ki and irreversible rate constant k3 for irreversible inhibitors, CPP32
Format: biochemical
appliedConditions: continuous assay 60 min, reaction initiated by adding enzyme
measureName: CPP32 k3/Ki

UniProt P42574 CPP32 k3/Ki of Cc1cc(OCC(=O)[C@H](CC(=O)O)NC(=O)[C@@H](NC(=O)COc2cccc3ccccc23)C(C)C)cc(=O)o1 is 21,900 M^−1s^−1

Kindly note: UniProt P42574, C[C@H](NC(=O)COc1ccc2ccccc2c1)C(=O)NC(CC(=O)O)C(=O)COc1c(F)c(F)cc(F)c1F (stereo partly shown) , CPP32 k3/Ki value reported: 4,330 M^−1s^−1

The reported UniProt P42574 CPP32 k3/Ki of CC(C)[C@H](NC(=O)COc1cccc2ccccc12)C(=O)N[C@@H](CC(=O)O)C(=O)COc1cc(F)cc(F)c1F is 60,100 M^−1s^−1

The compound O=C(O)CC(NC(=O)[C@@H]1Cc2ccccc2N1C(=O)COc1cccc2ccccc12)C(=O)CF (stereo partly shown) , tested on UniProt P42574, showed CPP32 k3/Ki of 28,300 M^−1s^−1

Tested on UniProt P42574: CC(C)[C@H](NC(=O)COc1cccc2ccccc12)C(=O)N[C@@H](CC(=O)O)C(=O)COc1cc(F)c(F)cc1F . Observed CPP32 k3/Ki: 24,400 M^−1s^−1

Response field CPP32 k3/Ki (UniProt P42574) for item CC(C)[C@H](NC(=O)COc1cccc2ccccc12)C(=O)N[C@@H](CC(=O)O)C(=O)COc1ccc(F)c(F)c1F : 35,800 M^−1s^−1

Assay UniProt P42574, sample CC(C)[C@H](NC(=O)COc1cccc2ccccc12)C(=O)N[C@@H](CC(=O)O)C(=O)COc1cc(F)cc(F)c1 , CPP32 k3/Ki read: 9,240 M^−1s^−1
